Tested on: MDA-MB-231 cells (human breast cancer cells)
Assay: MDA-MB-231 cell proliferation inhibitory assay (CellTiter-Glo)
Assay type: cell-based
Settings: Homo sapiens, MDA-MB-231, 72 h, read-out: Proliferation inhibition IC50
# reported pIC50; entries follow
Convention used: pIC50 is expressed as -log10 of the molar concentration.

Please review the following examples before continuing.
[[record]]
molecule = "CC[C@@]1(O)C(=O)OCc2c1cc1n(c2=O)Cc2c-1nc1ccc(C(F)F)cc1c2[C@H](C)N [Example 32a]"
assay_target = "MDA-MB-231 cells (human breast cancer cells)"
experimental_value = 7.78

[[record]]
molecule = "CC[C@@]1(O)C(=O)OCc2c1cc1n(c2=O)Cc2c-1nc1cc(F)c(C)cc1c2[C@H](C)NC"
assay_target = "MDA-MB-231 cells (human breast cancer cells)"
experimental_value = 7.69

[[record]]
molecule = "CC[C@@]1(O)C(=O)OCc2c1cc1n(c2=O)Cc2c-1nc1cc(F)c(C)cc1c2C(C)(C)N"
assay_target = "MDA-MB-231 cells (human breast cancer cells)"
experimental_value = 6.49

[[record]]
molecule = "CC[C@@]1(O)C(=O)OCc2c1cc1n(c2=O)Cc2c-1nc1cc(F)c(C)cc1c2[C@H](C)NCCNC [Example 25c]"
assay_target = "MDA-MB-231 cells (human breast cancer cells)"
experimental_value = 7.45

[[record]]
molecule = "CC[C@@]1(O)C(=O)OCc2c1cc1n(c2=O)Cc2c-1nc1cc(F)c(OC)cc1c2[C@H](C)N [Example 30a]"
assay_target = "MDA-MB-231 cells (human breast cancer cells)"
experimental_value = 7.94

[[record]]
molecule = "CC[C@@]1(O)C(=O)OCc2c1cc1n(c2=O)Cc2c-1nc1cc(F)c(C)cc1c2[C@H](C)NC(=O)C1(O)CC1"
assay_target = "MDA-MB-231 cells (human breast cancer cells)"
experimental_value = 7.00


Please report the recorded pIC50 for CC[C@@]1(O)C(=O)OCc2c1cc1n(c2=O)Cc2c-1nc1cc(F)c(C)cc1c2[C@H](C)N1CCNCC1 [Example 41a] .
7.00

---

# reported IC50; entries follow
System: MDA-MB-435s cells (human melanoma cells)
Assay: MDA-MB-435s cell proliferation inhibitory assay (CellTiter-Glo)
Format: cell-based
Conditions: Homo sapiens, MDA-MB-435S, 72 h, read-out: Proliferation inhibition IC50
Procedure: • 1). […] Resuspend an appropriate amount of cell suspension to 3000 cells/100 μL according to the count, mixed well and then put the corresponding number of cells into a 96-well plate by pipette. • 3). […] Day 1 detected: Take out an appropriate amount of CTG 1 h in advance and the plate was allowed to equilibrate at room temperature for 30 min. 100 μL of CTG was added to each well and shaken for 5 mins, and then standed in the dark for 5 mins, the luminescence value was detected by ELISA. • 6). […]
Use nM as the unit, but write only the number.

Please report the recorded IC50 for CC[C@@]1(O)C(=O)OCc2c1cc1n(c2=O)Cc2c-1nc1cc(F)c(C)c3c1c2[C@@H](NC(=O)CO)CC3 [Dxd, reference compound] .
5.12

Please report the recorded IC50 for CC[C@@]1(O)C(=O)OCc2c1cc1n(c2=O)Cc2c-1nc1cc(F)c(C)cc1c2[C@@H](C)NS(C)(=O)=O [Example 26a] .
2.8

Please report the recorded IC50 for CC[C@@]1(O)C(=O)OCc2c1cc1n(c2=O)Cc2c-1nc1cc(F)c(C(F)(F)F)cc1c2[C@H](C)N [Example 34a] .
4.37

Please report the recorded IC50 for CC[C@@]1(O)C(=O)OCc2c1cc1n(c2=O)Cc2c-1nc1cc(F)c(F)cc1c2[C@@H](C)N [Example 33b] .
0.85

Please report the recorded IC50 for CC[C@@]1(O)C(=O)OCc2c1cc1n(c2=O)Cc2c-1nc1cc(F)c(C)cc1c2[C@@H](C)NCCN(C)C [Example 25b] .
9.6

Please report the recorded IC50 for CC[C@@]1(O)C(=O)OCc2c1cc1n(c2=O)Cc2c-1nc1cc(F)c(C)cc1c2[C@H](C)NC(C)=O .
3.5

Please report the recorded IC50 for CC[C@@]1(O)C(=O)OCc2c1cc1n(c2=O)Cc2c-1nc1cc(F)c(C)cc1c2[C@H](C)N .
2.3
